targetDesc: AADAC (arylacetamide deacetylase) (Homo sapiens, UniProt P22760)
Sequence (P22760 whole entry): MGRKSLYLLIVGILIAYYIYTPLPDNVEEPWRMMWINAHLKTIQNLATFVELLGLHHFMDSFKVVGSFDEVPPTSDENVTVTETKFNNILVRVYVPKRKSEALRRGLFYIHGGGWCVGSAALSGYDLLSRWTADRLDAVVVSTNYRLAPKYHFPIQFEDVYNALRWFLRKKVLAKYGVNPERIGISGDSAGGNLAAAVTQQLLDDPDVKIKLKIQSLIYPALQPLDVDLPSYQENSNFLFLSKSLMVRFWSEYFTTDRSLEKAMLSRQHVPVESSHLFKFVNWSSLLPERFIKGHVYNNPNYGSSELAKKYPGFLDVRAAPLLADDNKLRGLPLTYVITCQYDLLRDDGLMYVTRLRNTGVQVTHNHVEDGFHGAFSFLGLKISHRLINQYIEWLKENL
test: Drug metabolism assessed as AADAC-mediated compound hydrolysis in human liver homogenates at 5 uM
Assay type: ADME, tissue-based
recordedConditions: read-out: Drug metabolism
valueKind: metabolised at 5 µM (%)

1) CC(C)C(=O)Nc1ccc([N+](=O)[O-])c(C(F)(F)F)c1 [FLUTAMIDE]	11.7

====

targetDesc: AADAC (arylacetamide deacetylase) (Homo sapiens)
test: Drug metabolism assessed as AADAC-mediated compound hydrolysis in human liver homogenates at 5 to 200 uM
Format: ADME, tissue-based
recordedConditions: read-out: Drug metabolism
valueKind: metabolised at up to 200 µM

1. CC(C)C(=O)Nc1ccc([N+](=O)[O-])c(C(F)(F)F)c1 [FLUTAMIDE]	79.6%

====

targetDesc: CES2 (cocaine esterase) (Homo sapiens, UniProt O00748)
Sequence (O00748 whole entry): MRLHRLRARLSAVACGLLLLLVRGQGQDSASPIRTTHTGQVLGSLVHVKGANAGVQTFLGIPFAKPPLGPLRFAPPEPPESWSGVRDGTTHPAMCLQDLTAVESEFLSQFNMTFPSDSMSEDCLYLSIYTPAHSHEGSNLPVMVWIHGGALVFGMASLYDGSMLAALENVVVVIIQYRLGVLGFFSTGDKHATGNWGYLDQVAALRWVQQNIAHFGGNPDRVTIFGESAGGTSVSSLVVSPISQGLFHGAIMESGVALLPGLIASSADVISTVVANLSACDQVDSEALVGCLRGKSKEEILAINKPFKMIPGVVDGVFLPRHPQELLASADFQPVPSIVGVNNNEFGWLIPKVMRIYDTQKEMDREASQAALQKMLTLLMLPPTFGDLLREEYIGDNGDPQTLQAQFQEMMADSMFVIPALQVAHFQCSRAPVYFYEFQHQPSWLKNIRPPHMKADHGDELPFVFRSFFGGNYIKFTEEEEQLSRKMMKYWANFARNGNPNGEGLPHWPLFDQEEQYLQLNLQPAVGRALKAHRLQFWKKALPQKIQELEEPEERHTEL
test: Drug metabolism assessed as CES2-mediated compound hydrolysis in human liver homogenates at 50 uM
Format: ADME, tissue-based
recordedConditions: read-out: Drug metabolism
valueKind: metabolised at 50 µM (%)

1) CC(C)C(=O)Nc1ccc([N+](=O)[O-])c(C(F)(F)F)c1 [FLUTAMIDE]	47

Provenance of the data: ChEMBL document CHEMBL3526158
